# test.target: Alpha-1D adrenergic receptor (Homo sapiens) (UniProt P25100)
# Sequence (whole entry): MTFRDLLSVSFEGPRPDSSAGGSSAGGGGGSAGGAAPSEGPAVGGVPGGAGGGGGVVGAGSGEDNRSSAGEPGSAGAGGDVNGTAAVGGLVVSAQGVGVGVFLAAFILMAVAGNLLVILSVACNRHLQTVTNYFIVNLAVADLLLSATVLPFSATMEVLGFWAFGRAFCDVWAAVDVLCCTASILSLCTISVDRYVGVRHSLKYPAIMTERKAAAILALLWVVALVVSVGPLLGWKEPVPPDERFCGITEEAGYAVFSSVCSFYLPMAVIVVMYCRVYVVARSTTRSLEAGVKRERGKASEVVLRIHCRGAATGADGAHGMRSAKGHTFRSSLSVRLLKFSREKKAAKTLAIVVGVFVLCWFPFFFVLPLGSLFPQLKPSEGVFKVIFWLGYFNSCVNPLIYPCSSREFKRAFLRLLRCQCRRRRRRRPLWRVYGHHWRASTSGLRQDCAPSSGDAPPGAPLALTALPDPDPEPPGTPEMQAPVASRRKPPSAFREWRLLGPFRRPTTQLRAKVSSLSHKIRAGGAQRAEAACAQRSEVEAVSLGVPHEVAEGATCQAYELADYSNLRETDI
# experimental.protocol: Maximal response via calcium mobilization towards Human Alpha-1D adrenergic receptor as percent relative to […] phenylephrine
# Type: functional
readout.name: Max response (%)
Field: numeric (%). Do not append units.

# example entries with known answers
1) CCn1nccc1-c1ccccc1NCC1=NCCN1
0
2) Cc1ccc(-c2ccccc2NCC2=NCCN2)n1C
0

Request: Specify reported Max response for the compound shown: CCn1ccc(-c2ccccc2NCC2=NCCN2)n1
Result: 0
